// data source = PubChem BioAssay (EPA / NIEHS)

Read-out: Actin alpha 1 (ACTA1), ACTA1 (gene 58)
METHOD SUMMARY: BSK_MyoF_ACTA1: BioMAP Diversity Plus: MyoF Assay for Actin alpha 1 (ACTA1) Biomarker Activity (AID 2284244)
RUN PARAMETERS: primary human lung fibroblasts
Activity calls are given as the source filed them. The calls were made as follows: active = hit-call score of the fitted dose curve at least 0.9, where 1 is the maximum; inactive = score below 0.9.

>  <SMILES ENTRY>
CN(C)C(=S)SC(=S)N(C)C

>  <AC50>
36.6 µM (active)

$$$$
>  <SMILES ENTRY>
IC(I)I

>  <AC50>
inactive

$$$$
>  <SMILES ENTRY>
C=C(C)C(=O)OCCOCCOCCOCCOC(=O)C(=C)C

>  <AC50>
inactive

$$$$
>  <SMILES ENTRY>
CCCCCC(C=O)=Cc1ccccc1

>  <AC50>
29.5 µM (active)

$$$$
>  <SMILES ENTRY>
C=C(C)C(=O)OCC(CC)(COC(=O)C(=C)C)COC(=O)C(=C)C

>  <AC50>
10.5 µM (active)

$$$$

###

Read-out: Collagen IV, COL4A1 (gene 1282)
METHOD SUMMARY: BSK_MyoF_CollagenIV: BioMAP Diversity Plus: MyoF Assay for Collagen IV Biomarker Activity (AID 2284247)
RUN PARAMETERS: primary human lung fibroblasts
Active and inactive are the calls of the source. How the source made its calls: active means hit-call score of the fitted dose curve at least 0.9, where 1 is the maximum; inactive means score below 0.9.
Labels: active, inactive

>  <COMPOUND>
C=C(C)C(=O)OCCOCCOCCOC(=O)C(=C)C

>  <ANSWER LABEL>
inactive

$$$$
>  <COMPOUND>
CCC(C)c1cc([N+](=O)[O-])cc([N+](=O)[O-])c1OC(=O)OC(C)C (stereo not drawn)

>  <ANSWER LABEL>
active

$$$$
>  <COMPOUND>
C=C(C)[C@H]1CC=C(C)C(=O)C1

>  <ANSWER LABEL>
inactive

$$$$
>  <COMPOUND>
C[C@@H]1CCN(C(=O)[C@H](CCCN=C(N)N)NS(=O)(=O)c2cccc3c2NC[C@H](C)C3)[C@@H](C(=O)O)C1

>  <ANSWER LABEL>
inactive

$$$$
>  <COMPOUND>
Clc1cc(Cl)c(-c2c(Cl)c(Cl)cc(Cl)c2Cl)cc1Cl

>  <ANSWER LABEL>
inactive

$$$$
>  <COMPOUND>
CC1(C)C2=CCCC(C)(C)[C@]23CC[C@H]1C3

>  <ANSWER LABEL>
inactive

$$$$
>  <COMPOUND>
CC(=O)C1(C)CC2=C(CCCC2(C)C)CC1C (stereo not drawn)

>  <ANSWER LABEL>
active

$$$$
>  <COMPOUND>
CN(C)C(=O)Nc1ccc(Oc2ccc(Cl)cc2)cc1

>  <ANSWER LABEL>
inactive

$$$$
>  <COMPOUND>
O=C1OC2(c3ccccc31)c1ccc(O)c(Br)c1Oc1c2ccc(O)c1Br

>  <ANSWER LABEL>
active

$$$$
>  <COMPOUND>
COc1cc(Cl)c(OC)cc1N

>  <ANSWER LABEL>
inactive

$$$$
>  <COMPOUND>
CN(C)C(=S)SC(=S)N(C)C

>  <ANSWER LABEL>
inactive

$$$$
>  <COMPOUND>
CS(=O)(=O)c1ccc(C2=C(c3ccccc3)C(=O)OC2)cc1

>  <ANSWER LABEL>
inactive

$$$$
>  <COMPOUND>
CCCCCC(C=O)=Cc1ccccc1

>  <ANSWER LABEL>
inactive

$$$$
>  <COMPOUND>
CC(=O)c1c(C)c([N+](=O)[O-])c(C(C)(C)C)c([N+](=O)[O-])c1C

>  <ANSWER LABEL>
inactive

$$$$
>  <COMPOUND>
CCN(CC)C(=O)N(CC)CC

>  <ANSWER LABEL>
inactive

$$$$
>  <COMPOUND>
CC(=O)Nc1ccc(C(=O)CCl)cc1

>  <ANSWER LABEL>
active

$$$$
>  <COMPOUND>
C1=CC2C3C=CC(C3)C2C1 (stereo not drawn)

>  <ANSWER LABEL>
inactive

$$$$
>  <COMPOUND>
O=C1c2ccccc2C(=O)c2c(O)ccc(O)c21

>  <ANSWER LABEL>
inactive

$$$$
>  <COMPOUND>
CC(C)(C)CC(C)(C)c1ccc(OCCOCC[N+](C)(C)Cc2ccccc2)cc1

>  <ANSWER LABEL>
active

$$$$
>  <COMPOUND>
IC(I)I

>  <ANSWER LABEL>
inactive

$$$$
>  <COMPOUND>
c1ccc2cc(Nc3ccc(Nc4ccc5ccccc5c4)cc3)ccc2c1

>  <ANSWER LABEL>
inactive

$$$$
>  <COMPOUND>
CN(c1nccc(=O)[nH]1)C1CCN(c2nc3ccccc3n2Cc2ccc(F)cc2)CC1

>  <ANSWER LABEL>
inactive

$$$$
>  <COMPOUND>
CC(C=O)Cc1ccc(C(C)(C)C)cc1 (stereo not drawn)

>  <ANSWER LABEL>
inactive

$$$$

###

SUBJECT OF TEST: Retinoic acid receptor alpha (Homo sapiens)
METHOD SUMMARY: ATG_DR5_RAR_CIS: Attagene CIS-FACTORIAL HepG2 Assay for human Retinoic Acid Receptor Alpha (RARE), DR5 submotif (AID 2282934);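 as to AC50: reporter responds to endogenous RAR alpha beta and gamma in HepG2 not RARA alone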
RUN PARAMETERS: HepG2 Attagene cis-factorial RARE DR5 reporter, mRNA; actives raise or lower the signal
Activity calls are given as the source filed them. Rule for the calls: active = hit-call score of the fitted dose curve at least 0.9, where 1 is the maximum; inactive = score below 0.9.
RECORDED ENDPOINT: AC50

>  <COMPOUND>
[O-]n1ccccc1=S.[O-]n1ccccc1=S.[Zn+2]

>  <RESULT>
inactive

$$$$
>  <COMPOUND>
Nc1ccc2c(O)cc(S(=O)(=O)O)cc2c1

>  <RESULT>
inactive

$$$$
>  <COMPOUND>
OC[C@H]1O[C@@H]2O[C@H]3[C@H](O)[C@@H](O)[C@@H](O[C@H]4[C@H](O)[C@@H](O)[C@@H](O[C@H]5[C@H](O)[C@@H](O)[C@@H](O[C@H]6[C@H](O)[C@@H](O)[C@@H](O[C@H]7[C@H](O)[C@@H](O)[C@@H](O[C@H]8[C@H](O)[C@@H](O)[C@@H](O[C@H]9[C@H](O)[C@@H](O)[C@@H](O[C@H]1[C@H](O)[C@H]2O)O[C@@H]9CO)O[C@@H]8CO)O[C@@H]7CO)O[C@@H]6CO)O[C@@H]5CO)O[C@@H]4CO)O[C@@H]3CO

>  <RESULT>
inactive

$$$$
>  <COMPOUND>
COC(C)(C)CC(C)=O

>  <RESULT>
inactive

$$$$
>  <COMPOUND>
CC(=O)C1(C)CC2=C(CCCC2(C)C)CC1C (stereo unspecified)

>  <RESULT>
100 µM (active)

$$$$
>  <COMPOUND>
c1ccc(CN(Cc2ccccc2)Cc2ccccc2)cc1

>  <RESULT>
inactive

$$$$

###

SUBJECT OF TEST: Cellular tumor antigen p53 (Homo sapiens) (UniProt P04637)
Sequence (P04637 whole entry, looked up): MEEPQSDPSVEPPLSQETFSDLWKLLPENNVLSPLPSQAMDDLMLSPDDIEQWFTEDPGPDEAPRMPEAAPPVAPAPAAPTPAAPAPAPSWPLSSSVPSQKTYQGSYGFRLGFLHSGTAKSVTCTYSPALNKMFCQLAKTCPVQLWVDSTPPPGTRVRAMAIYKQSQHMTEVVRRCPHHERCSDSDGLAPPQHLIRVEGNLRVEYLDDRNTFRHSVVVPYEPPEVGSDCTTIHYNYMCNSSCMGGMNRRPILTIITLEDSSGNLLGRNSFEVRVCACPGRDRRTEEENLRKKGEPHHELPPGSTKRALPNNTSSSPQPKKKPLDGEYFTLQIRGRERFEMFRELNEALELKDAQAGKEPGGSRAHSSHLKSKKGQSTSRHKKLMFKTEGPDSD
METHOD SUMMARY: ATG_p53_CIS: Attagene CIS-FACTORIAL HepG2 Assay for human p53 Transcription Factor (AID 2282994)
RUN PARAMETERS: HepG2 p53 cis-element reporter, Attagene mRNA; actives raise or lower the signal
Calls of active or inactive are those of the source. Rule for the calls: active = hit-call score of the fitted dose curve at least 0.9, where 1 is the maximum; inactive = score below 0.9.
Outcome codes: 1 for active, -1 for inactive

>  <COMPOUND>
COc1cc([C@@H]2c3cc4c(cc3[C@@H](O[C@@H]3O[C@@H]5CO[C@@H](C)O[C@H]5[C@H](O)[C@H]3O)[C@H]3COC(=O)[C@H]23)OCO4)cc(OC)c1O

>  <ANSWER LABEL>
-1

$$$$
>  <COMPOUND>
O=CN1CCOCC1

>  <ANSWER LABEL>
-1

$$$$
>  <COMPOUND>
C=CC(=O)OCCC#N

>  <ANSWER LABEL>
1

$$$$
>  <COMPOUND>
O=[N+]([O-])c1ccc(O)cc1C(F)(F)F

>  <ANSWER LABEL>
-1

$$$$
>  <COMPOUND>
CC(Oc1cc(Cl)ccc1Cl)C(=O)O (configuration not stated)

>  <ANSWER LABEL>
-1

$$$$
>  <COMPOUND>
CN1C(=O)c2ccccc2C1=O

>  <ANSWER LABEL>
-1

$$$$
>  <COMPOUND>
CCC(C)S (configuration not stated)

>  <ANSWER LABEL>
-1

$$$$
>  <COMPOUND>
O=C1CCCC=CCCCCCCCCCC1

>  <ANSWER LABEL>
-1

$$$$
>  <COMPOUND>
N#Cc1cscn1

>  <ANSWER LABEL>
-1

$$$$
>  <COMPOUND>
CCCCSCCCC

>  <ANSWER LABEL>
-1

$$$$
>  <COMPOUND>
C[Si](C)(C)O[Si](C)(C)C

>  <ANSWER LABEL>
-1

$$$$
>  <COMPOUND>
C[N+](C)(C)CCCCCC[N+](C)(C)C

>  <ANSWER LABEL>
-1

$$$$
>  <COMPOUND>
CCCC(O)C(O)CO (configuration not stated)

>  <ANSWER LABEL>
-1

$$$$
>  <COMPOUND>
NCCNc1cccc2ccccc12

>  <ANSWER LABEL>
1

$$$$
>  <COMPOUND>
Nc1ccccc1[N+](=O)[O-]

>  <ANSWER LABEL>
-1

$$$$
>  <COMPOUND>
C=C(C)C(=O)OCCOCCOCCOC(=O)C(=C)C

>  <ANSWER LABEL>
-1

$$$$
>  <COMPOUND>
CCCCCCOC(=O)CCC

>  <ANSWER LABEL>
-1

$$$$
